Please provide measured melting point for the entries that follow.

Ask | May I ask what melting point has been recorded for Cc1nc(N2CCN(Cc3ccccc3)C2=O)sc1C(=O)O [Example 6.2] ?
Reply | 248 to 249 °C

Ask | Requested read-out: melting point. Entry: Cc1nc(N2CCN(c3ccccc3)C2=O)sc1C(=O)O [Example 6]
Reply | 286 to 289 °C

Ask | melting point for Cc1cc(N2CCN(Cc3ccccc3)C2=O)sc1C(=O)NCc1cccnc1 [Example 15.1] ?
Reply | 130 to 131 °C

Ask | // query melting point value for entry Cc1nc(CNC(=O)c2sc(-n3cnn(Cc4ccc(F)cc4)c3=O)cc2C)cs1 [Example 31.8]
Reply | 148 to 150 °C

Ask | Tell me the measured melting point of Cc1nc(N2CCN(Cc3ccccc3)/C2=N\C#N)sc1C(=O)NCc1ccccc1 [Example 27] , please.
Reply | 226 to 228 °C

Ask | State the recorded melting point for this entry: CCOC(=O)c1sc(N2CCNC2=O)nc1C [Example 3]
Reply | 197 to 199 °C

Ask | What does the record list as melting point for Cc1nc(N2CCN(Cc3nc(C)n(-c4ccccc4)n3)C2=O)sc1C(=O)NCc1ccccc1 [Example 23.5] ?
Reply | 139 to 141 °C

Ask | What value of melting point has been recorded for this entry: Cc1nc(N2CCN(Cc3ccc(OC(F)F)cc3)C2=O)sc1C(=O)NCc1cccnc1 [Example 9.24]
Reply | 166 to 167 °C

Ask | Query (compound): Cc1nc(-n2cnn(Cc3ccc(F)cc3)c2=O)sc1C(=O)NCc1cnn(C)c1 [Example 21.10] ; field requested: melting point
Reply | 205 to 206 °C

Ask | # melting point lookup, item Cc1csc(N2CCN(Cc3ccc(C(F)(F)F)cc3)C2=O)n1 [Example 5.14]
Reply | 102 to 103 °C

Ask | Need melting point, item COC(=O)c1ccc(CN2CCN(c3nc(C)c(C(C)=O)s3)C2=O)cc1 [Example 5.11]
Reply | 174 to 175 °C

Ask | What does the record list as melting point for CCOC(=O)c1sc(N2CCN(Cc3ccc(C(F)(F)F)cc3)C2=O)nc1C [Example 5.2] ?
Reply | 126 to 127 °C

Ask | Consider the compound shown here: Cc1nc(N2CCN(Cc3cccnc3)C2=O)sc1C(=O)NCc1ccccc1 [Example 32.9] What is its recorded melting point?
Reply | 110 to 113 °C

Ask | Fill blank: measured melting point of the compound Cc1nc(N2CCN(Cc3ccc(F)cc3)C2=O)sc1C(=O)NCc1ccc(F)cc1 [Example 9.20] is ____.
Reply | 177 to 178 °C

Ask | I have this compound here, Cc1nc(N2CCN(Cc3ccc(F)cc3)C2=O)sc1C(=O)NCc1ncco1 [Example 32.11] , and I need its recorded melting point.
Reply | 187 to 189 °C

Ask | Looking for the measured melting point of Cc1ncc(CNC(=O)c2sc(-n3cnn(Cc4ccc(F)cc4)c3=O)nc2C)s1 [Example 21.11] , can you help?
Reply | 176 to 177 °C

* * *

Reported property: melting point

Ask | Look up melting point for this compound: "Cc1nc(N2CCN(CC3CC3)C2=O)sc1C(=O)NCc1ccccc1"
Reply | 142 to 143 °C

Ask | Report melting point for "Cc1nc(N2CCCN(Cc3ccc(F)cc3)C2=O)sc1C(=O)NCc1cccnc1" please.
Reply | 48 to 50 °C

Ask | Could you share which melting point value was measured for "Cc1nc(-n2cnn(CCNc3ccc(F)cc3)c2=O)sc1C(=O)NCc1cccnc1" ?
Reply | 163 to 164 °C

Ask | Suppose we examine the compound "Cc1cc(N2CCN(CCOc3ccccc3)C2=O)sc1C(=O)NCc1cccnc1" ; what melting point value has been reported?
Reply | 78 to 80 °C

Ask | Please report the recorded melting point for "Cc1cc(N2CCN(Cc3ccc(F)cc3)C2=O)sc1C(=O)NCc1cccnc1" .
Reply | 119 to 120 °C

Ask | Quick one: melting point for "O=C(NCc1cccnc1)c1cnc(N2CCN(CC3CC3)C2=O)s1" ?
Reply | 190 to 192 °C

Ask | // query melting point value for entry "Cc1cc(N2CCN(Cc3ccc(C(N)=O)cc3)C2=O)sc1C(=O)NCc1cccnc1"
Reply | 188 °C (dec.)

Ask | Dear colleague, I am looking for the recorded melting point of the following compound: "Cc1nc(N2CCN(Cc3ccccc3)C2=O)sc1C(=O)NCc1ccc(F)cc1F"
Reply | 157 to 158 °C

Ask | Recorded melting point of "CCN1CCN(c2nc(C)c(C(=O)NCc3cccnc3)s2)C1=O" , please.
Reply | 163 to 164 °C
